Cited source: ChEMBL document CHEMBL1777784

system: HL-60; experiment: Cytotoxicity against human HL60 cells; format: cell-based
// reported IC50 per item

Data request: What value of measured IC50 is listed for C/C=C1/C[N@@+]2(C)CCc3c([nH]c4ccc(O)c(C5=C[C@@]6(CC)CCCN7CCc8c(n5c5ccccc85)[C@H]76)c34)[C@H]2C[C@@H]1CCO [BISNICALATERINE D] ?
Data returned: > 50 µM

Data request: Record request: IC50 value, item C/C=C1/CN(C)[C@H]2Cc3c([nH]c4ccccc34)[C@H](n3c4c(c5ccccc53)C[C@H]3[C@@H](C(=O)OC)[C@H](C[C@H]4O)/C(=C\C)CN3C)C[C@H]1[C@@H]2C(=O)OC [BISNICALATERINE A]
Data returned: 16.2 µM

Data request: Entry C/C=C1/C[N@@+]2(C)CCc3c([nH]c4ccc(O)c([C@@H]5C[C@@]6(CC)CCCN7CCc8c(n5c5ccccc85)[C@H]76)c34)[C@H]2C[C@@H]1CCO (stereo in doubt; 4) [BISNICALATERINE B] : reported IC50 = ?
Data returned: > 50 µM

Data request: Suppose we examine the molecule CCc1c[n+]2ccc3c4ccccc4[nH]c3c2cc1CCO [NICALATERINE A] ; what IC50 value has been reported?
Data returned: > 50 µM
